Entries and their growth
- Tested on: HCT-15 colon
- TEST: NCI-60 one-dose screen, 48 h (100 = growth as untreated, 0 = no growth, -100 = all killed)
- DETAILS: 10 µM
The panel holds about 83,000 compounds, 20% with a hit somewhere; the sample as a whole holds those more often.
ENDPOINT NAME: growth (%)

>  <COMPOUND>
O=C1C=CC(=O)C2C1C1(Cl)C(Cl)=C(Cl)C2(Cl)C1(Cl)Cl (stereo unspecified)

>  <UNIT ANNOTATION>
%

>  <MEAS VALUE>
54.3

$$$$
>  <COMPOUND>
CC1(C)N=C(N)N=C(N)N1c1ccc(CCCCc2ccc(S(=O)(=O)F)cc2)cc1

>  <UNIT ANNOTATION>
%

>  <MEAS VALUE>
36.8

$$$$
>  <COMPOUND>
COC(C)(C)CCC[C@H](C)C/C=C/C(C)=C/C(=O)OC(C)C

>  <UNIT ANNOTATION>
%

>  <MEAS VALUE>
101

$$$$
>  <COMPOUND>
CC(N)Cc1ccc(O)cc1 (stereo unspecified)

>  <UNIT ANNOTATION>
%

>  <MEAS VALUE>
113

$$$$
>  <COMPOUND>
c1ccc([As]=[As]c2ccccc2)cc1 (stereo unspecified)

>  <UNIT ANNOTATION>
%

>  <MEAS VALUE>
-86.2

$$$$
>  <COMPOUND>
CC(C)OC(=S)[S-].[Au+].c1ccc([PH+](c2ccccc2)c2ccccc2)cc1

>  <UNIT ANNOTATION>
%

>  <MEAS VALUE>
-14.2

$$$$
>  <COMPOUND>
COc1cc(N(CCCl)CCCl)ccc1C=Nc1ccccc1C(=O)O

>  <UNIT ANNOTATION>
%

>  <MEAS VALUE>
97.7

$$$$
>  <COMPOUND>
C=CC(=O)NC(O)C(Cl)(Cl)Cl (stereo unspecified)

>  <UNIT ANNOTATION>
%

>  <MEAS VALUE>
97.1

$$$$
>  <COMPOUND>
Cc1ccccc1O

>  <UNIT ANNOTATION>
%

>  <MEAS VALUE>
106

$$$$
>  <COMPOUND>
CC(=O)O[C@H]1CCC2(C)C(=CCC3C2CCC2(C)/C(=N/OC(=O)c4ccc(N(CCCl)CCCl)cc4)CCC32)C1 (stereo partly specified)

>  <UNIT ANNOTATION>
%

>  <MEAS VALUE>
55.2

$$$$
>  <COMPOUND>
Nc1ncnc2c1c(C(=O)NO)cn2C1OC(CO)C(O)C1O (stereo unspecified)

>  <UNIT ANNOTATION>
%

>  <MEAS VALUE>
-9.1

$$$$
